tested on: Avena fatua; assay: Post-emergence herbicidal effect; format: in vivo; details: 20 g/ha, visual assessment after about 3 weeks
Measured Post-emergence effectiveness AVEFA of individual entries
Kindly provide the numeric value in % only, without the unit symbol.

Some compounds with recorded Post-emergence effectiveness AVEFA:
CCc1cc(C#CC2CC2)cc(C)c1C1=C(O)C2(CCC(COC)C2)NC1=O (stereo not shown) [Example I-12]    80
CC#Cc1cc(C)c(C2=C(OC(=O)C(C)C)C3(CCC(COC)C3)NC2=O)c(CC)c1 (stereo not shown)    90
CC#Cc1cc(C)c(C2=C(O)C3(CCC(CCOC)CC3)NC2=O)c(CC)c1 (stereo not shown)    90

Proceeding to the next compound to report its Post-emergence effectiveness AVEFA.
Inquiry: Find the measured Post-emergence effectiveness AVEFA of CC#Cc1cc(C)c(C2=C(O)C3(CCC(COC)CC3)NC2=O)c(CC)c1 (stereo not shown) and report it.
Reply text: 90
